- TESTED_ON: human TRPM8 (Homo sapiens, UniProt Q7Z2W7)
- Construct: expressed in transfected cells; host or cells: Chinese hamster ovary (CHO) cells, T-REx tetracycline-inducible expression system (Invitrogen); co-transfected with pcDNA3.1 aequorin
- Sequence (Q7Z2W7 whole entry): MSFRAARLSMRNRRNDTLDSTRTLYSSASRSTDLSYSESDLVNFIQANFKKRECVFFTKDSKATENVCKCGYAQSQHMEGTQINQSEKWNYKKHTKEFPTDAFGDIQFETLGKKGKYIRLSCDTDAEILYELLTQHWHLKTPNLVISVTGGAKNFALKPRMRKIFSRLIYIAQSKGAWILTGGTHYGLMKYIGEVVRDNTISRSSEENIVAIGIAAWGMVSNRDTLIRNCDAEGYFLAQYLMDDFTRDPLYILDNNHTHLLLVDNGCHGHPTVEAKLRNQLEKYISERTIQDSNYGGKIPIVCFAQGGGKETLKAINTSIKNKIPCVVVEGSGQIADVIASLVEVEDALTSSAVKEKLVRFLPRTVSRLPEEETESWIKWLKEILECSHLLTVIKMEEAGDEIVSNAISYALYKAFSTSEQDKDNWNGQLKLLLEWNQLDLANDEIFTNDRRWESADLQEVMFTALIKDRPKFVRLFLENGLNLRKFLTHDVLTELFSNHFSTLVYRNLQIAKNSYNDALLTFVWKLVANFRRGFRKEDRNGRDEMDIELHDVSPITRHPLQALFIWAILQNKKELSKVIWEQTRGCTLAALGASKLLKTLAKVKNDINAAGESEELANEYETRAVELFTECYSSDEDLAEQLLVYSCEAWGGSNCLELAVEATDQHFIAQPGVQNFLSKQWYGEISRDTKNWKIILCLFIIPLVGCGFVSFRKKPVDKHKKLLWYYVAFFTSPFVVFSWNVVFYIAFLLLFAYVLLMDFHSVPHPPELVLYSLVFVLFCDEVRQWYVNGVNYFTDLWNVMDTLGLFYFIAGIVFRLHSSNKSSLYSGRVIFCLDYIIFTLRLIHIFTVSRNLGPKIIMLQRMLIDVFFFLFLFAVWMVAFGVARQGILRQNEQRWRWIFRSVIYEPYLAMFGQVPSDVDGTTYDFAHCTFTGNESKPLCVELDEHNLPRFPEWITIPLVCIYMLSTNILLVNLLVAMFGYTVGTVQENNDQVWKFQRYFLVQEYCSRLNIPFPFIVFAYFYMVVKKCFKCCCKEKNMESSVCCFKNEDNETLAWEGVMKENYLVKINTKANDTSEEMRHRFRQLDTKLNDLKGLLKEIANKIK
- ASSAY_SUMMARY: Luminescence readout assay for measuring intracellular calcium (aequorin, CHO cells expressing human TRPM8; icilin, L-menthol or cold activation)
- Format: cell-based
- RUN_PARAMETERS: CHO cells expressing human TRPM8, icilin activation (1 μM), aequorin luminescence; read-out: hTRPM8 IC50
Where a name gives a salt, the structure may show the parent alone.
Reported IC50 by item:
VALUE_TYPE: IC50 (nM)

- COMPOUND: "COc1ccc(C(=O)N[C@]2(c3ccc(C(F)(F)F)cc3)CCOc3cccnc32)cn1"
  VALUE_TYPE: "IC50"
  MEASUREMENT_UNIT: "nM"
  RESULT_VALUE: 51
- COMPOUND: "Cc1nc(C(=O)N[C@]2(c3ccc(OC(F)(F)F)c(F)c3)CCOc3cccnc32)ccc1C(=O)O"
  VALUE_TYPE: "IC50"
  MEASUREMENT_UNIT: "nM"
  RESULT_VALUE: 8
- COMPOUND: "Cc1cc(C(=O)N[C@]2(c3ccc(OC(F)(F)F)c(F)c3)CCOc3cccnc32)ccc1Br"
  VALUE_TYPE: "IC50"
  MEASUREMENT_UNIT: "nM"
  RESULT_VALUE: 19
- COMPOUND: "O=C(N[C@]1(c2ccc(OC(F)(F)F)cc2)CCOc2cccnc21)c1nccc2ccccc12 [Example 247, formate]"
  VALUE_TYPE: "IC50"
  MEASUREMENT_UNIT: "nM"
  RESULT_VALUE: 30
